systemUnderTest: PI 3-Kinase Gamma (Homo sapiens (Human), UniProt P48736)
Sequence (P48736 whole entry): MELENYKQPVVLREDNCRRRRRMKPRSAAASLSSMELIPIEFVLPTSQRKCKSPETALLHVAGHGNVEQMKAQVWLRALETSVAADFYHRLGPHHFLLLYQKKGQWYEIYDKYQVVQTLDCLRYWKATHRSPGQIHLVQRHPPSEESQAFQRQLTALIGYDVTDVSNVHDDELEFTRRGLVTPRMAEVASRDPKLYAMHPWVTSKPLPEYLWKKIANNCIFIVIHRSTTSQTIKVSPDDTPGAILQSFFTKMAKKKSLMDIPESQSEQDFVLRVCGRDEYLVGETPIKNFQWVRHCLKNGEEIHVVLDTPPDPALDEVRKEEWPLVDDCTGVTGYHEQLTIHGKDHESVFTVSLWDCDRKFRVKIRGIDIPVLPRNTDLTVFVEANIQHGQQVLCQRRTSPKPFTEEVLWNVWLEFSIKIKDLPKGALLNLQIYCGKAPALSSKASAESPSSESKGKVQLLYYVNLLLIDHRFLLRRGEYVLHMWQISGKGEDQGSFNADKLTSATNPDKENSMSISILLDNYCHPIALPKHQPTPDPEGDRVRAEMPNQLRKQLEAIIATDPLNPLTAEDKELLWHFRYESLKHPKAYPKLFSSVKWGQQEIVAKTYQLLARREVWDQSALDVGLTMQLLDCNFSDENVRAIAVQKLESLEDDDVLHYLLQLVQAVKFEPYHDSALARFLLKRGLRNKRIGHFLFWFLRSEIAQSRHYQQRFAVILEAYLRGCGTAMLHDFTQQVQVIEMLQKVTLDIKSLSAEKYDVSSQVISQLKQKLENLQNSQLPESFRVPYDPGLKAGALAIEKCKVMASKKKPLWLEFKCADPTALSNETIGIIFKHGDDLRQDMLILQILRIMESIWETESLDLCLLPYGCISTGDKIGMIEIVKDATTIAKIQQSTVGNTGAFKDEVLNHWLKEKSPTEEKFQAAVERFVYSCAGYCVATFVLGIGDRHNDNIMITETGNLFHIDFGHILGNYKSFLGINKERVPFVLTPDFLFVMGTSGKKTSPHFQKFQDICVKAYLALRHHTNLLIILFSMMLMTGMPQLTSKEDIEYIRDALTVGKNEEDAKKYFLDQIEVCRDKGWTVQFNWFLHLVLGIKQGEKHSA
assayDetails: Cellular U937 AKT assay for PI 3-kinase gamma
particulars: U937 cells, MIP1α-stimulated AKT phosphorylation, read-out: Cell PI3K gamma IC50

{"smilesData": "COc1ccc(-c2cccc3nc([C@@H]4CCCN4c4nc(N)nc(C)c4C#N)n(-c4ccccc4)c(=O)c23)cn1", "IC50": "1.1 µM"}
{"smilesData": "COc1ccc(-c2cccc3nc([C@@H]4C[C@H](O)CN4c4nc(N)nc(C)c4C#N)n(-c4ccccc4)c(=O)c23)cn1", "IC50": "0.063 µM"}
{"smilesData": "CCOc1ncc(-c2c(F)ccc3nc([C@@H]4C[C@H](O)CN4c4nc(N)nc(C)c4C#N)n(-c4ccccc4)c(=O)c23)cn1", "IC50": "0.038 µM"}
{"smilesData": "Cc1nc(N)nc(N2C[C@@H](O)C[C@H]2c2nc3cccc(-c4cnn(C)c4)c3c(=O)n2-c2ccccc2)c1C#N", "IC50": "0.055 µM"}
{"smilesData": "COc1ncc(-c2cccc3nc([C@@H]4CCCN4c4ncnc(N)c4C#N)n(-c4ccccc4)c(=O)c23)cn1", "IC50": "0.43 µM"}
{"smilesData": "Cc1ccccc1-n1c([C@@H]2CCCN2c2ncnc(N)c2C#N)nc2cccc(-c3cnn(C)c3)c2c1=O", "IC50": "0.21 µM"}
{"smilesData": "Cc1ncc(-c2cccc3nc([C@@H]4CCCN4c4nc(N)nc(C)c4C#N)n(-c4ccccc4)c(=O)c23)cn1", "IC50": "0.22 µM"}

====

systemUnderTest: human phosphoinositide-3 kinase (PI3K) alpha (Homo sapiens (Human), UniProt P42336)
Sequence (P42336 whole entry): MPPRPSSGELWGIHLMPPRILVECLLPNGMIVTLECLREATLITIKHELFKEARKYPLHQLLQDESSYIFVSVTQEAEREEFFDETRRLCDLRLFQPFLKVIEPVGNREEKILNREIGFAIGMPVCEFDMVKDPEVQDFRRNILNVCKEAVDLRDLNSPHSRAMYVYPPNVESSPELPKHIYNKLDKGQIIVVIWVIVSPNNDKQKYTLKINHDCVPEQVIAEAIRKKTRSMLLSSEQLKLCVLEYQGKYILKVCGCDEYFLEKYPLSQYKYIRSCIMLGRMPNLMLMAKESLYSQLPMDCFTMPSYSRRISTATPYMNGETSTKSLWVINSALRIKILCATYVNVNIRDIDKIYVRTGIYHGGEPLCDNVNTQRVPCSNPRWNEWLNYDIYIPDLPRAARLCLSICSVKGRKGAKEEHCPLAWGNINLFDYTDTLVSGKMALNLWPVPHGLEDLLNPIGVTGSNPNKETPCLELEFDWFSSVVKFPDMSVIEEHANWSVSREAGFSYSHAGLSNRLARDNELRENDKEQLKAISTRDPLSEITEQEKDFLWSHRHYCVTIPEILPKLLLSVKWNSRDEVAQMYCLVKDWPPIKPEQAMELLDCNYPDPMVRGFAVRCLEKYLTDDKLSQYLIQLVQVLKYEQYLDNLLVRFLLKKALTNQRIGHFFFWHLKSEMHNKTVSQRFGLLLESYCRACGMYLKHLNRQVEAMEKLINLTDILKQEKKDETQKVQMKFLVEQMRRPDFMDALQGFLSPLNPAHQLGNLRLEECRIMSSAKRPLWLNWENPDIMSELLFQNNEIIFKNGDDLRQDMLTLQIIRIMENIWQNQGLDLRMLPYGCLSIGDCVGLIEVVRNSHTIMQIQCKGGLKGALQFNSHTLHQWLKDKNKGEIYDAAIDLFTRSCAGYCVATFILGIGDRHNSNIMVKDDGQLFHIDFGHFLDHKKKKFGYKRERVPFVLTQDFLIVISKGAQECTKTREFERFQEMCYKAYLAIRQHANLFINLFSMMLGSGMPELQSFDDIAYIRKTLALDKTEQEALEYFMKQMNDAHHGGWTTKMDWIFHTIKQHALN
Sequence (Q63787 whole entry partner): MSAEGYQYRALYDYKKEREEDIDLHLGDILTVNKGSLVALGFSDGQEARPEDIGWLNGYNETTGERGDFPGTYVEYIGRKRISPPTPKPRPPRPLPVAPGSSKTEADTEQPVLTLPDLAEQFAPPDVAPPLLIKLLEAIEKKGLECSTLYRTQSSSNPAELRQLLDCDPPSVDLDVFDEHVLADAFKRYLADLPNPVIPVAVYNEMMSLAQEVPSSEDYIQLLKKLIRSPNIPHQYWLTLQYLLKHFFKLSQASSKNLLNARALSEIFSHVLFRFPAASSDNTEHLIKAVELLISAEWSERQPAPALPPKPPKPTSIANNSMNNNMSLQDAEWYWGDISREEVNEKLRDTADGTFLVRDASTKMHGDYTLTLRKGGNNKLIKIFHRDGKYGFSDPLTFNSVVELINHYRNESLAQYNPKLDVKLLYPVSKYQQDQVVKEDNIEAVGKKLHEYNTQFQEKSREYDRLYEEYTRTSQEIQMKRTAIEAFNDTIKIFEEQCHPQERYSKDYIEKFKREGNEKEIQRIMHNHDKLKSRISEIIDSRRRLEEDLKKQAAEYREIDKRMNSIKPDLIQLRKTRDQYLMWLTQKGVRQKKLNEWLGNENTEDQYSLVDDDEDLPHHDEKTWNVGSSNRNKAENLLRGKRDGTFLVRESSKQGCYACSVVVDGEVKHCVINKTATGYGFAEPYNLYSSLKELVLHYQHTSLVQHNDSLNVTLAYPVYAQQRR
assayDetails: PI3K-mediated Akt 1/2 (S473) phosphorylation in Rat-1 cells overexpressing PI3K alpha
particulars: cellular assay, p-AKT(Ser473), read-out: Cell PI3K alpha IC50
Listing of recorded IC50 by entry.

{"molecule": "COc1ncc(-c2cccc3nc([C@@H]4C[C@H](OC)CN4c4nc(N)nc(C)c4C#N)n(-c4ccccc4)c(=O)c23)cn1 [Example 12]", "IC50, nM": 5900}
{"molecule": "Cc1ccccc1-n1c([C@@H]2CCCN2c2ncnc(N)c2C#N)nc2cccc(-c3cnn(C)c3)c2c1=O [Example 14]", "IC50, nM": 3300}
{"molecule": "Cc1nc(N)nc(N2C[C@@H](F)C[C@H]2c2nc3cccc(-c4cnn(C)c4)c3c(=O)n2-c2ccccc2)c1C#N [Example 30]", "IC50, nM": 2300}
{"molecule": "Cc1nc(N)nc(N2C[C@@H](O)C[C@H]2c2nc3ccc(F)c(-c4cnn(C)c4)c3c(=O)n2-c2ccccc2)c1C#N [Example 1]", "IC50, nM": 2200}

====

systemUnderTest: human phosphoinositide-3 kinase (PI3K) delta (Homo sapiens (Human), UniProt O00329)
Sequence (O00329 whole entry, one chain of several): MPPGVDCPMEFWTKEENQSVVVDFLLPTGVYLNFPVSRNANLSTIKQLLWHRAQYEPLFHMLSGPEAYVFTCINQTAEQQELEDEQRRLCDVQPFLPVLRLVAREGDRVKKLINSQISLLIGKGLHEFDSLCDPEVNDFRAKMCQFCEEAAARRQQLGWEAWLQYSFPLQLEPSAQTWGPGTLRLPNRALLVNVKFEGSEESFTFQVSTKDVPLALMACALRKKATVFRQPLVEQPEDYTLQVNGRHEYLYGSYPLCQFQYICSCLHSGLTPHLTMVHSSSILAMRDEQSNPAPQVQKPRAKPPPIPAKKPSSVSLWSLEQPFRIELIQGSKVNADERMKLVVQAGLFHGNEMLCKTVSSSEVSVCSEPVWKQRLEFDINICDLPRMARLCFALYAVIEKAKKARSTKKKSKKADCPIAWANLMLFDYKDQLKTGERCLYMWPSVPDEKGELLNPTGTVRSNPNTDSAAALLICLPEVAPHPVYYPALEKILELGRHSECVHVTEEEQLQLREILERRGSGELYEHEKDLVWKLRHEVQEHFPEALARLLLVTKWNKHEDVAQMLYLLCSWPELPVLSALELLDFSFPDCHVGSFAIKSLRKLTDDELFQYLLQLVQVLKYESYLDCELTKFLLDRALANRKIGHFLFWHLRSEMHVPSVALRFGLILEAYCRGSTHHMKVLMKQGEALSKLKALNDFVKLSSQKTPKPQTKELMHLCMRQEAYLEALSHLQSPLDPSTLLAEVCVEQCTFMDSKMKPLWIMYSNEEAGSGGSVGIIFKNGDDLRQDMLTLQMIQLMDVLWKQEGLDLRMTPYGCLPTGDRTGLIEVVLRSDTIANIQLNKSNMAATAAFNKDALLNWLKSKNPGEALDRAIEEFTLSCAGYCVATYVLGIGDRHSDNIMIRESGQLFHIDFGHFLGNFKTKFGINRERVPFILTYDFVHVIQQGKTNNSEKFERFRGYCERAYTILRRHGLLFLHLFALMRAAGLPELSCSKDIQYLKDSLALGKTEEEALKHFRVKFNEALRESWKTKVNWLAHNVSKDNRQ
assayDetails: PI3K-mediated Akt 1/2 (S473) phosphorylation in Rat-1 cells overexpressing PI3K delta
particulars: cellular assay, p-AKT(Ser473), read-out: Cell PI3K delta IC50
pIC50: −log10 of the molar value.
Listing of recorded pIC50 by entry.
measurementLabel: pIC50

{"smilesData": "Cc1nc(N)nc(N2C[C@@H](O)C[C@H]2c2nc3ccc(F)c(-c4cnn(C)c4)c3c(=O)n2-c2ccccc2)c1C#N", "measurementLabel": "pIC50", "censoringOperator": "=", "reportedResult": 8.52}
{"smilesData": "COc1ncc(-c2c(F)ccc3nc([C@@H]4C[C@H](O)CN4c4nc(N)nc(C)c4C#N)n(-c4ccccc4)c(=O)c23)cn1", "measurementLabel": "pIC50", "censoringOperator": "=", "reportedResult": 8.05}
{"smilesData": "CCOc1ncc(-c2c(F)ccc3nc([C@@H]4C[C@H](O)CN4c4nc(N)nc(C)c4C#N)n(-c4ccccc4)c(=O)c23)cn1", "measurementLabel": "pIC50", "censoringOperator": "=", "reportedResult": 8.22}
{"smilesData": "Cn1cnc(-c2cccc3nc([C@@H]4CCCN4c4ncnc(N)c4C#N)n(-c4ccccc4)c(=O)c23)c1", "measurementLabel": "pIC50", "censoringOperator": "=", "reportedResult": 5.27}
{"smilesData": "COc1ncc(-c2cccc3nc([C@@H]4C[C@H](O)CN4c4nc(N)nc(C)c4C#N)n(-c4ccccc4)c(=O)c23)cn1", "measurementLabel": "pIC50", "censoringOperator": "=", "reportedResult": 8.15}
{"smilesData": "COc1cncc(-c2cccc3nc([C@@H]4CCCN4c4nc(N)nc(C)c4C#N)n(-c4ccccc4)c(=O)c23)c1", "measurementLabel": "pIC50", "censoringOperator": ">", "reportedResult": 8.52}
{"smilesData": "Cc1ncc(-c2cccc3nc([C@@H]4CCCN4c4nc(N)nc(C)c4C#N)n(-c4ccccc4)c(=O)c23)cn1", "measurementLabel": "pIC50", "censoringOperator": ">", "reportedResult": 8.52}

These data points were gathered from patent US9840498B2.
